Assay System: EBOV VP40 (6xHis-VP40) (Ebola virus - Mayinga, Zaire, 1976)
Sequence (Q05128 whole entry, looked up): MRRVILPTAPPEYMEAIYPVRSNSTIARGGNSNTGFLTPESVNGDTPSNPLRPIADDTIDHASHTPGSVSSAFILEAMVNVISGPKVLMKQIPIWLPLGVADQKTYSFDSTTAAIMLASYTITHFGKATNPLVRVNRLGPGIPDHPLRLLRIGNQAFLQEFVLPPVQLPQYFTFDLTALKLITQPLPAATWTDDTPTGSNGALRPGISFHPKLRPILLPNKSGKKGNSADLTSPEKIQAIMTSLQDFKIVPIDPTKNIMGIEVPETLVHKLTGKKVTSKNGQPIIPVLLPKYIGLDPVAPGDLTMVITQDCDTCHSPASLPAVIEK
Protocol: biochemical
Type: binding
Reported Metric: Kd
Units required after the number.

// query Supply reported Kd belonging to this compound: `CCCCCCCC/C=C\CCCCCCCC(=O)O[C@H](COC(=O)CCCCCCCCCCCCCCC)COP(=O)(O)OC[C@H](N)C(=O)O`
// result 186 nM
